# System: Plasmodium berghei
# Run Description: Screen against P. berghei liver stage (PbLuc), transformed with Luciferase, at 10uM
# Type: functional, HepG2
# Assay Setup: tested at 10 uM
Among all 69,000 compounds or so, about 8,600 (12%) showed an effect of 50% or more. This excerpt belongs to a sample that is enriched for strong results.
Measured Quantity: INHIBITION (%)
Answers are plain numbers, in %.

# annotated cases, reported INHIBITION shown
{"Compound": "CCC1CN(CC(=O)NCCN2CCCC2)c2ccccc2S1 (configuration not stated)", "Test Target": "Plasmodium berghei", "Units Text": "%", "INHIBITION": 18.3}
{"Compound": "Cc1cc(NC(=O)N2CCN(C)CC2C)n(Cc2ccccc2)n1 (configuration not stated)", "Test Target": "Plasmodium berghei", "Units Text": "%", "INHIBITION": 43.4}
{"Compound": "Cc1nc(CC(=O)NCCNc2nccc(C(F)(F)F)n2)cs1", "Test Target": "Plasmodium berghei", "Units Text": "%", "INHIBITION": 22.6}
{"Compound": "CC(C)Oc1ccccc1C1CC(=O)Nc2nc(N3CCOCC3)sc21 (configuration not stated)", "Test Target": "Plasmodium berghei", "Units Text": "%", "INHIBITION": -41.2}
{"Compound": "Cc1ncc(CN2CCc3c(nc4cc(C5CC5)nn4c3O)C2)n1C", "Test Target": "Plasmodium berghei", "Units Text": "%", "INHIBITION": 47.1}

Hi team, please reply with INHIBITION for each item in this list.
1. COc1ccnc(N(C)Cc2csc(C)n2)n1
2. Cc1nc(CN(C)c2nccc(N(C)C)n2)cs1

# output
-62.7
51.5

Source of measurements: ChEMBL document CHEMBL4513216
